In this section we review reported melting point values for a set of compounds.

Here is how some compounds turned out for melting point.
[
  {
    "Compound": "CCN(CC)C(=O)c1ccnc(Br)c1",
    "melting point": "200 to 203 °C"
  },
  {
    "Compound": "Cc1cc(NC(=O)C2=C(O)c3ccsc3S(=O)(=O)C2)no1",
    "melting point": "209 to 210 °C"
  },
  {
    "Compound": "CCOC(=O)c1cc2n(c1)CN(CCC#N)c1c(OC)cccc1-2",
    "melting point": "146 to 147 °C"
  },
  {
    "Compound": "CCCCCCNC(=O)c1ccccc1I",
    "melting point": "104 to 105 °C"
  },
  {
    "Compound": "CCC(CC)NC(=O)c1ccc(-c2scc(-c3ccccc3Cl)c2CC(=O)O)cc1",
    "melting point": "101 to 103 °C"
  },
  {
    "Compound": "C=Cc1ccc(-c2ccc3cc(C(=O)OCc4ccccc4)ccc3c2)cc1C12CC3CC(CC(C3)C1)C2",
    "melting point": "158 to 160 °C"
  },
  {
    "Compound": "CC1(C)Oc2cc3nonc3cc2C(N2CCC(=O)CC2=O)C1O (stereo not given)",
    "melting point": "220 to 223 °C"
  },
  {
    "Compound": "COc1cc(N)cc([N+](=O)[O-])c1OC",
    "melting point": "129 to 131 °C"
  }
]

Entry under test: COc1ccc(CNc2nnc(-n3ccnc3)c3ccc(Cl)cc23)cc1Cl . Its melting point was 221 to 222 °C

Entry under test: Cc1ccc(C(=O)C2=C(O)C(=O)N(c3ccc(C(F)(F)F)cn3)C2c2ccc(C(C)C)cc2)cc1 (stereo not given) . Its melting point was 255 to 257 °C
